tested on: PSMA-expressing LNCaP tumor xenografts; assay: Ex vivo biodistribution in LNCaP tumor-bearing mice; conditions: LNCaP tumor-bearing mice, 1 h post injection, mean ± SD, n = 4
RECORDED_ENDPOINT: Seminal vesicle uptake

stdin: So what's the measured Seminal vesicle uptake for this one? N#C[C@@H]1CC(F)(F)CN1C(=O)CNC(=O)c1ccnc2ccc(OCc3cn(CC(=O)N[C@@H](CCCCNC(=O)CN4CCN(CC(=O)[O-])CCN(CC(=O)[O-])CCN(CC(=O)[O-])CC4)C(=O)NCC(=O)NC[C@H]4CC[C@H](C(=O)N[C@@H](Cc5c6ccccc6cc6ccccc56)C(=O)NCCCC[C@H](NC(=O)N[C@@H](CCC(=O)O)C(=O)O)C(=O)O)CC4)nn3)cc12.[68Ga+3] [[^68Ga]Ga-AV01038]
stdout: 1.51 ± 0.08 %ID/g

###

Give measured Fat uptake for each item. Keep answers brief.
system: PSMA-expressing LNCaP tumor xenografts; test: Ex vivo biodistribution in LNCaP tumor-bearing mice; details: LNCaP tumor-bearing mice, 1 h post injection, mean ± SD, n = 4
Write your answer as a measured quantity: the number, then the unit.

stdin: Requested field: Fat uptake. Item: N#C[C@@H]1CC(F)(F)CN1C(=O)CNC(=O)c1ccnc2ccc(OCc3cn(CC(=O)N[C@@H](CCCCNC(=O)CN4CCN(CC(=O)[O-])CCN(CC(=O)[O-])CCN(CC(=O)[O-])CC4)C(=O)NCC(=O)NC[C@H]4CC[C@H](C(=O)N[C@@H](Cc5c6ccccc6cc6ccccc56)C(=O)NCCCC[C@H](NC(=O)N[C@@H](CCC(=O)O)C(=O)O)C(=O)O)CC4)nn3)cc12.[68Ga+3] [[^68Ga]Ga-AV01038]
stdout: 1.01 ± 0.28 %ID/g

stdin: Lookup N#C[C@@H]1CC(F)(F)CN1C(=O)CNC(=O)c1ccnc2ccc(OCCCc3cn(CC(=O)N[C@@H](CCCCNC(=O)CN4CCN(CC(=O)[O-])CCN(CC(=O)[O-])CCN(CC(=O)[O-])CC4)C(=O)NCC(=O)NC[C@H]4CC[C@H](C(=O)N[C@@H](Cc5c6ccccc6cc6ccccc56)C(=O)NCCCC[C@H](NC(=O)N[C@@H](CCC(=O)O)C(=O)O)C(=O)O)CC4)nn3)cc12.[68Ga+3] [[^68Ga]Ga-AV01017]
stdout: 1.01 ± 0.48 %ID/g

stdin: // same read-out, input: N#C[C@@H]1CC(F)(F)CN1C(=O)CNC(=O)c1ccnc2ccc(OCCCN3CCN(C(=O)CN4CCN(CC(=O)[O-])CCN(CC(=O)[O-])CCN(CC(=O)[O-])CC4)CC3)cc12.[68Ga+3] [[^68Ga]Ga-FAPI-04, reference compound]
stdout: 0.55 ± 0.47 %ID/g

stdin: Now consider N#C[C@@H]1CC(F)(F)CN1C(=O)CNC(=O)c1ccnc2ccc(-c3cn(CC(=O)N[C@@H](CCCCNC(=O)CN4CCN(CC(=O)[O-])CCN(CC(=O)[O-])CCN(CC(=O)[O-])CC4)C(=O)NCC(=O)NC[C@H]4CC[C@H](C(=O)N[C@@H](Cc5c6ccccc6cc6ccccc56)C(=O)NCCCC[C@H](NC(=O)N[C@@H](CCC(=O)O)C(=O)O)C(=O)O)CC4)nn3)cc12.[68Ga+3] [[^68Ga]Ga-AV01030] .
stdout: 0.68 ± 0.12 %ID/g

###

What Seminal vesicle uptake was measured for each of the following?
test system: FAP-expressing HEK293T:hFAP tumor xenografts; experiment: Ex vivo biodistribution in HEK293T:hFAP tumor-bearing mice; settings: 1 h post injection, mean ± SD, n = 4
Kindly answer with a numeric value in %ID/g, unit omitted.

stdin: Return reported Seminal vesicle uptake; argument: N#C[C@@H]1CC(F)(F)CN1C(=O)CNC(=O)c1ccnc2ccc(OCCCc3cn(CC(=O)N[C@@H](CCCCNC(=O)CN4CCN(CC(=O)[O-])CCN(CC(=O)[O-])CCN(CC(=O)[O-])CC4)C(=O)NCC(=O)NC[C@H]4CC[C@H](C(=O)N[C@@H](Cc5c6ccccc6cc6ccccc56)C(=O)NCCCC[C@H](NC(=O)N[C@@H](CCC(=O)O)C(=O)O)C(=O)O)CC4)nn3)cc12.[68Ga+3] [[^68Ga]Ga-AV01017]
stdout: 1.15

stdin: Let us now turn to O=C([O-])CN1CCN(CC(=O)[O-])CCN(CC(=O)NC[C@H]2CC[C@H](C(=O)N[C@@H](Cc3c4ccccc4cc4ccccc34)C(=O)NCCCC[C@H](NC(=O)N[C@@H](CCC(=O)O)C(=O)O)C(=O)O)CC2)CCN(CC(=O)[O-])CC1.[68Ga+3] [[^68Ga]Ga-HTK03041, reference compound]
stdout: 0.32

stdin: Queued: N#C[C@@H]1CC(F)(F)CN1C(=O)CNC(=O)c1ccnc2ccc(OCc3cn(CC(=O)N[C@@H](CCCCNC(=O)CN4CCN(CC(=O)[O-])CCN(CC(=O)[O-])CCN(CC(=O)[O-])CC4)C(=O)NCC(=O)NC[C@H]4CC[C@H](C(=O)N[C@@H](Cc5c6ccccc6cc6ccccc56)C(=O)NCCCC[C@H](NC(=O)N[C@@H](CCC(=O)O)C(=O)O)C(=O)O)CC4)nn3)cc12.[68Ga+3] [[^68Ga]Ga-AV01038]
stdout: 1.15

stdin: Next molecule: N#C[C@@H]1CC(F)(F)CN1C(=O)CNC(=O)c1ccnc2ccc(OCCCN3CCN(C(=O)CN4CCN(CC(=O)[O-])CCN(CC(=O)[O-])CCN(CC(=O)[O-])CC4)CC3)cc12.[68Ga+3] [[^68Ga]Ga-FAPI-04, reference compound]
stdout: 0.15

###

I'd appreciate it if you could supply Spleen uptake values for the items below.
tested on: FAP-expressing HEK293T:hFAP tumor xenografts; experiment: Ex vivo biodistribution in HEK293T:hFAP tumor-bearing mice; conditions: 1 h post injection, mean ± SD, n = 4
Provide only the numeric value, understood in %ID/g.

stdin: Need Spleen uptake of N#C[C@@H]1CC(F)(F)CN1C(=O)CNC(=O)c1ccnc2ccc(OCc3cn(CC(=O)N[C@@H](CCCCNC(=O)CN4CCN(CC(=O)[O-])CCN(CC(=O)[O-])CCN(CC(=O)[O-])CC4)C(=O)NCC(=O)NC[C@H]4CC[C@H](C(=O)N[C@@H](Cc5c6ccccc6cc6ccccc56)C(=O)NCCCC[C@H](NC(=O)N[C@@H](CCC(=O)O)C(=O)O)C(=O)O)CC4)nn3)cc12.[68Ga+3] [[^68Ga]Ga-AV01038] , thanks.
stdout: 5.47

stdin: Subsequent entry: N#C[C@@H]1CC(F)(F)CN1C(=O)CNC(=O)c1ccnc2ccc(OCCCN3CCN(C(=O)CN4CCN(CC(=O)[O-])CCN(CC(=O)[O-])CCN(CC(=O)[O-])CC4)CC3)cc12.[68Ga+3] [[^68Ga]Ga-FAPI-04, reference compound]
stdout: 0.56

stdin: Next: N#C[C@@H]1CC(F)(F)CN1C(=O)CNC(=O)c1ccnc2ccc(-c3cn(CC(=O)N[C@@H](CCCCNC(=O)CN4CCN(CC(=O)[O-])CCN(CC(=O)[O-])CCN(CC(=O)[O-])CC4)C(=O)NCC(=O)NC[C@H]4CC[C@H](C(=O)N[C@@H](Cc5c6ccccc6cc6ccccc56)C(=O)NCCCC[C@H](NC(=O)N[C@@H](CCC(=O)O)C(=O)O)C(=O)O)CC4)nn3)cc12.[68Ga+3] [[^68Ga]Ga-AV01030]
stdout: 7.41

stdin: Ok, now N#C[C@@H]1CC(F)(F)CN1C(=O)CNC(=O)c1ccnc2ccc(OCCCc3cn(CC(=O)N[C@@H](CCCCNC(=O)CN4CCN(CC(=O)[O-])CCN(CC(=O)[O-])CCN(CC(=O)[O-])CC4)C(=O)NCC(=O)NC[C@H]4CC[C@H](C(=O)N[C@@H](Cc5c6ccccc6cc6ccccc56)C(=O)NCCCC[C@H](NC(=O)N[C@@H](CCC(=O)O)C(=O)O)C(=O)O)CC4)nn3)cc12.[68Ga+3] [[^68Ga]Ga-AV01017]
stdout: 3.63

###

Tested on: FAP-expressing HEK293T:hFAP tumor xenografts
Assay: Ex vivo biodistribution in HEK293T:hFAP tumor-bearing mice
Details: 1 h post injection, mean ± SD, n = 4
Protocol: Biodistribution studies were also conducted at 1 h post injection with [^68Ga]Ga-AV01017, [^68Ga]Ga-AV01030, [^68Ga]Ga-AV01038, [^68Ga]Ga-HTK03041, and [^68Ga]Ga-FAPI-04 in HEK293T:hFAP tumor-bearing mice (Figure 6 and Table S5, Supplementary Materials). Tumor uptake values for [^68Ga]Ga-AV01017, [^68Ga]Ga-AV01030, [^68Ga]Ga-AV01038, [^68Ga]Ga-HTK03041, and [^68Ga]Ga-FAPI-04 were 2.99 ± 0.37, 3.69 ± 0.81, 3.64 ± 0.83, 0.62 ± 0.19, and 12.5 ± 2.00 %ID/g, respectively. […]
Under this convention, true (1) denotes Kidneys uptake strictly below 20 %ID/g and false (0) denotes Kidneys uptake at or above 20 %ID/g.

stdin: Just wondering, is Kidneys uptake of N#C[C@@H]1CC(F)(F)CN1C(=O)CNC(=O)c1ccnc2ccc(-c3cn(CC(=O)N[C@@H](CCCCNC(=O)CN4CCN(CC(=O)[O-])CCN(CC(=O)[O-])CCN(CC(=O)[O-])CC4)C(=O)NCC(=O)NC[C@H]4CC[C@H](C(=O)N[C@@H](Cc5c6ccccc6cc6ccccc56)C(=O)NCCCC[C@H](NC(=O)N[C@@H](CCC(=O)O)C(=O)O)C(=O)O)CC4)nn3)cc12.[68Ga+3] [[^68Ga]Ga-AV01030] below 20 %ID/g?
stdout: false (0)

stdin: Follow-up item: N#C[C@@H]1CC(F)(F)CN1C(=O)CNC(=O)c1ccnc2ccc(OCc3cn(CC(=O)N[C@@H](CCCCNC(=O)CN4CCN(CC(=O)[O-])CCN(CC(=O)[O-])CCN(CC(=O)[O-])CC4)C(=O)NCC(=O)NC[C@H]4CC[C@H](C(=O)N[C@@H](Cc5c6ccccc6cc6ccccc56)C(=O)NCCCC[C@H](NC(=O)N[C@@H](CCC(=O)O)C(=O)O)C(=O)O)CC4)nn3)cc12.[68Ga+3] [[^68Ga]Ga-AV01038]
stdout: false (0)

stdin: Same read-out for N#C[C@@H]1CC(F)(F)CN1C(=O)CNC(=O)c1ccnc2ccc(OCCCc3cn(CC(=O)N[C@@H](CCCCNC(=O)CN4CCN(CC(=O)[O-])CCN(CC(=O)[O-])CCN(CC(=O)[O-])CC4)C(=O)NCC(=O)NC[C@H]4CC[C@H](C(=O)N[C@@H](Cc5c6ccccc6cc6ccccc56)C(=O)NCCCC[C@H](NC(=O)N[C@@H](CCC(=O)O)C(=O)O)C(=O)O)CC4)nn3)cc12.[68Ga+3] [[^68Ga]Ga-AV01017] ?
stdout: true (1)

stdin: Same question, O=C([O-])CN1CCN(CC(=O)[O-])CCN(CC(=O)NC[C@H]2CC[C@H](C(=O)N[C@@H](Cc3c4ccccc4cc4ccccc34)C(=O)NCCCC[C@H](NC(=O)N[C@@H](CCC(=O)O)C(=O)O)C(=O)O)CC2)CCN(CC(=O)[O-])CC1.[68Ga+3] [[^68Ga]Ga-HTK03041, reference compound] this time
stdout: false (0)

stdin: Field entry: N#C[C@@H]1CC(F)(F)CN1C(=O)CNC(=O)c1ccnc2ccc(OCCCN3CCN(C(=O)CN4CCN(CC(=O)[O-])CCN(CC(=O)[O-])CCN(CC(=O)[O-])CC4)CC3)cc12.[68Ga+3] [[^68Ga]Ga-FAPI-04, reference compound]
stdout: true (1)
